Exercise: for every item that follows, state its recorded melting point.

Some solved entries appear below for comparison.
Request the reported melting point associated with COc1ccc(N2CCOCC2)c2sc(NC(=O)OCC(C)C)nc12
164 to 168 °C

Request the reported melting point associated with COCCOC(=O)Nc1nc2c(OC)ccc(N3CCOCC3)c2s1
149 to 152 °C

Request the reported melting point associated with COc1ccc(N2CCOCC2)c2sc(NC(=O)OC3CCC(O)C3)nc12 (mixture of isomers)
188 to 189 °C

Request the reported melting point associated with COc1ccc(C2CCOCC2)c2sc(NC(=O)OCC3CCCO3)nc12 (centres unmarked)
175 to 180 °C

Record melting point for all entries; do not skip any.
1. COc1ccc(N2CCOCC2)c2sc(NC(=O)O[C@H]3CC[C@H](O)CC3)nc12
2. COc1ccc(N2CCOCC2)c2sc(NC(=O)OC3CC4CC3CC4O)nc12 (racemic)
3. COc1ccc(C2CCOCC2)c2sc(NC(=O)O[C@H]3CCOC3)nc12
4. COc1ccc(N2CCOCC2)c2sc(NC(=O)OC3CCOCC3)nc12

1. 176 to 179 °C
2. 193 to 194 °C
3. 195 to 200 °C
4. 187 to 188 °C

The values you see were collected from patent US7304058B2.
